FYI, the data here is from the supplement of paper PMC10567573.

B1: ZNF8 (parent)
chain: RTHTGEKPYTCSVCGKSFSRTTCL

variants of: B1; assay: protein stability index of a GFP-peptide fusion (GPS, HEK-293T) (PSI 1-6); higher = more stable; conditions: c terminus: a fixed tail appended;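 note: lentivirally expressed fusions sorted by FACS into six bins by GFP to DsRed ratio, PSI derived from sequencing read proportions per bin multiplied by bin number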
assay_endpoint: protein stability index
Answers are plain numbers.

Example entries begin here.
RTHTGEKPYTCSWCGKSFSRTTCL [V13W] = 1.65
RTHRGEKPYTCSVCGKSFSRTTCL [T4R] = 2.66
RTHTGVKPYTCSVCGKSFSRTTCL [E6V] = 2.04

For each of the variants below, state protein stability index.
1. RTHTGEKPYTCSVCGDSFSRTTCL [K16D]
2. RTHTGEKPYTCSVCGKSFSRTMCL [T22M]
3. RTHTGEKPYTCSVCPKSFSRTTCL [G15P]
4. RTHTGEKPYTCSVCGPSFSRTTCL [K16P]
5. RTHTGEKPYTCSVCGESFSRTTCL [K16E]
6. GTHTGEKPYTCSVCGKSFSRTTCL [R1G]

A.
1. 2.08
2. 1.63
3. 2.57
4. 1.81
5. 2.61
6. 3

For each of the variants below, state protein stability index.
1. RTHTGEKPYTCSVCGKSFSYTTCL [R20Y]
2. RTHTGEKPYTCSVKGKSFSRTTCL [C14K]

A.
[2.91, 3.06]
